Species: Mus musculus
Assay: Cytotoxicity against J774.1 macrophages after 48 hrs
Conditions: J774.1, 48 h
Collected IC50 values appear next to each entry.
result type: IC50

molecule=COc1cc(OC)c2c(C)[n+](-c3ccccc3)c(C)cc2c1.[Cl-] result_type=IC50 recorded_measurement="43.7 µM"
molecule=COc1cc(OC)c2c(C)[n+](-c3cccc4ccccc34)c(C)cc2c1.[O-][Cl+3]([O-])([O-])[O-] result_type=IC50 recorded_measurement="10.2 µM"
molecule="COc1cc2c(c(OC)c1)C(C)=[N+](c1ccc3cc(C)cc(OC)c3c1O)[C@@H](C)C2 [ANCISTROCLADINIUM B]" result_type=IC50 recorded_measurement="11.2 µM"
molecule="COc1cc2c(c(OC)c1)C(C)=[N+](c1ccc(OC)c3c(OC)cc(C)cc13)[C@@H](C)C2 [ANCISANCISTROCLADINIUM A]" result_type=IC50 recorded_measurement="31.8 µM"
molecule="COc1cc(OC)c(-c2ccc(OC)c3c(OC)cc(C)cc23)c2c1C(C)=N[C@@H](C)C2 [ANCISTROEALAINE A]" result_type=IC50 recorded_measurement="> 100 µM"
molecule=COc1cc(CO)c(-c2ccc3c(c2O)[C@@H](C)N[C@H](C)C3)c2cccc(O)c12 result_type=IC50 recorded_measurement="> 100 µM"
molecule="COc1cc2c(c(OC)c1-c1c(C)cc3cccc(OC)c3c1O)C(C)=N[C@@H](C)C2 [ANCISTROCLADIDINE]" result_type=IC50 recorded_measurement="> 100 µM"
molecule=COc1cc(OC)c2c(C)[n+](-c3ccccc3)c(C)cc2c1.[O-][Cl+3]([O-])([O-])[O-] result_type=IC50 recorded_measurement="39.2 µM"
molecule="COc1c2c(cc(O)c1-c1c(C)cc3cccc(OC)c3c1O)C[C@H](C)N=C2C [ANCISTROHEYNINE B]" result_type=IC50 recorded_measurement="29.9 µM"
molecule=COc1ccc(-c2ccc3cc(C)nc(C)c3c2O)c2cc(C)cc(OC)c12 result_type=IC50 recorded_measurement="> 100 µM"
molecule=COc1cc(C)c(-c2ccc(O)c3c2C[C@@H](C)N[C@@H]3C)c2cccc(O)c12 result_type=IC50 recorded_measurement="32.8 µM"
